B1: INTS3 (parent)
chain: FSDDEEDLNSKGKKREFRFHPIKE

- Variants of: B1
- protocol_details: protein stability index of a GFP-peptide fusion (GPS, HEK-293T) (PSI 1-6); higher = more stable;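 further: lentivirally expressed fusions sorted by FACS into six bins by GFP to DsRed ratio, PSI derived from sequencing read proportions per bin multiplied by bin number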
- condition_context: c terminus: a fixed tail appended
Output 1.0 for protein stability index not less than 3; output 0.0 otherwise.

Determine whether measured protein stability index meets or exceeds 3 for `K23Q`
1.0

Determine whether measured protein stability index meets or exceeds 3 for `S2K`
1.0

Determine whether measured protein stability index meets or exceeds 3 for `R15F`
0.0

Determine whether measured protein stability index meets or exceeds 3 for `K14M`
0.0

Determine whether measured protein stability index meets or exceeds 3 for `H20E`
1.0

Determine whether measured protein stability index meets or exceeds 3 for `K23A`
1.0

Determine whether measured protein stability index meets or exceeds 3 for `K14L`
0.0

Determine whether measured protein stability index meets or exceeds 3 for `R18G`
1.0

Determine whether measured protein stability index meets or exceeds 3 for `S10W`
1.0

Determine whether measured protein stability index meets or exceeds 3 for `R18A`
1.0

Determine whether measured protein stability index meets or exceeds 3 for `E16Q`
0.0

Determine whether measured protein stability index meets or exceeds 3 for `D7N`
0.0

Determine whether measured protein stability index meets or exceeds 3 for `E5P`
0.0

Determine whether measured protein stability index meets or exceeds 3 for `N9T`
1.0

Determine whether measured protein stability index meets or exceeds 3 for `E5K`
0.0

Determine whether measured protein stability index meets or exceeds 3 for `E16W`
0.0

Determine whether measured protein stability index meets or exceeds 3 for `D4M`
0.0

Determine whether measured protein stability index meets or exceeds 3 for `F19P`
1.0

Determine whether measured protein stability index meets or exceeds 3 for `S2C`
0.0

Determine whether measured protein stability index meets or exceeds 3 for `K13W`
0.0

Determine whether measured protein stability index meets or exceeds 3 for `N9W`
0.0
